target-desc: VCAM-1 binding to α4β7-negative Th memory cells (Homo sapiens, UniProt P05556+P13612)
Construct: endogenous in cells
Sequence (P13612 34-1032): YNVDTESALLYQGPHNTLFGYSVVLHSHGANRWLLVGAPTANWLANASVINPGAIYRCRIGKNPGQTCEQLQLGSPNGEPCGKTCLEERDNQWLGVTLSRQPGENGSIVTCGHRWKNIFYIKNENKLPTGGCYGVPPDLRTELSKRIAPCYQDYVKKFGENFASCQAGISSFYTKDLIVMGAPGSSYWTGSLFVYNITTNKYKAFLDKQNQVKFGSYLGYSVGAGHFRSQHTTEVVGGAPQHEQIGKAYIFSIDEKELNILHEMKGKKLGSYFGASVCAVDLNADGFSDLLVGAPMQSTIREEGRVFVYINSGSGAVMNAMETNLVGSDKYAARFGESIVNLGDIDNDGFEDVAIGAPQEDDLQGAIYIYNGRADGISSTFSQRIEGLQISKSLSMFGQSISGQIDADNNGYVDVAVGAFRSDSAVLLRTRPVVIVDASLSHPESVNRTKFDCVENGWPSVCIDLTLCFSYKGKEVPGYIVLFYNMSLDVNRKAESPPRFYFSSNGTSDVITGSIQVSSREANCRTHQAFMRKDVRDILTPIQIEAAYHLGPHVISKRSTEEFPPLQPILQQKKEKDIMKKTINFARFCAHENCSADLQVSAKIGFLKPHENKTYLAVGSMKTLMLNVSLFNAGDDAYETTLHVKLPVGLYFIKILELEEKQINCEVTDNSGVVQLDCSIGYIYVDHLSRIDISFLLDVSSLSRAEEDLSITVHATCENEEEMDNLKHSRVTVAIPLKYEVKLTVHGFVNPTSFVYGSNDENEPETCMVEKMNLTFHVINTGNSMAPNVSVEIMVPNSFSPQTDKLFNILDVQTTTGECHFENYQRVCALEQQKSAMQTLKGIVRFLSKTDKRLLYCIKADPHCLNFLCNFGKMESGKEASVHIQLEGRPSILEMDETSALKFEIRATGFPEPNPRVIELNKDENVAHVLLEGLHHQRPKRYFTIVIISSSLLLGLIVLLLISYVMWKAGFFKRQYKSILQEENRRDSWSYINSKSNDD
Sequence (P05556 21-798): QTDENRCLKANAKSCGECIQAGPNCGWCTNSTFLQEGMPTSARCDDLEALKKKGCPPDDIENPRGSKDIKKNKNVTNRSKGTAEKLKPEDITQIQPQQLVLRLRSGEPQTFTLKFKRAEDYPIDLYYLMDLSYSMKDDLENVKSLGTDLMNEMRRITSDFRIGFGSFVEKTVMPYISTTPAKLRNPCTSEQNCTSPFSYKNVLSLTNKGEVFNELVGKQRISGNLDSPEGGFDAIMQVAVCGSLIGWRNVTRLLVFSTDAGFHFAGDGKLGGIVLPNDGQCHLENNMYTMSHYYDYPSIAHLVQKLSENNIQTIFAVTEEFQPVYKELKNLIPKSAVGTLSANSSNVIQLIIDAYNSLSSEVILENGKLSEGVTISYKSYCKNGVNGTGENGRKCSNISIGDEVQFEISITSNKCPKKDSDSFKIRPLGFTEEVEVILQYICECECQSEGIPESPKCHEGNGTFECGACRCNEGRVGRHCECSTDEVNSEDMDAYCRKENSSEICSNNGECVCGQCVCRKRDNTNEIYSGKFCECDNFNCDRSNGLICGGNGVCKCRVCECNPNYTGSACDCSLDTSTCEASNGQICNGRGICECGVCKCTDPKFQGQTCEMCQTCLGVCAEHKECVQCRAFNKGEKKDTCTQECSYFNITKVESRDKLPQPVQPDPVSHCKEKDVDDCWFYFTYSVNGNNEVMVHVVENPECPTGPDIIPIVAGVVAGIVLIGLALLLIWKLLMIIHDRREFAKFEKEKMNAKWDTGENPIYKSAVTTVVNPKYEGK
assay: VCAM-1 competition / receptor occupancy assay in human whole blood, α4β7-negative Th memory cells
Type: cell-based
condition-details: human whole blood, inhibition of VCAM binding to α4β7-negative Th memory cells, FACS; read-out: VCAM FACS α4+β7− Th mem
measured-attribute: IC50 (µM)
# unit: µM | format: bare number

molecule | measured-attribute | measurement-units | observed-value
CC(C)C[C@@H]1NC(=O)c2ccc(-c3ccc(N4CCN(C(=O)CCOCCOCCOCCOCCOCCOCCOCCOCCOCCOCCC(=O)N5CCN(c6ccc(-c7ccc8cc7CNC(=O)[C@@H]7CCCN7[C@H](C(=O)NC(C)(C)C)[C@H](C)NC(=O)[C@H]([C@@H](C)O)NC(=O)[C@H](CC(=O)O)NC(=O)[C@H](CC(C)C)NC8=O)cc6)CC5)CC4)cc3)c(c2)CNC(=O)[C@@H]2CCCN2[C@H](C(=O)NC(C)(C)C)[C@H](C)NC(=O)[C@H]([C@@H](C)O)NC(=O)[C@H](CC(=O)O)NC1=O [Compound 511] | IC50 | µM | 20

Could you now consider this next molecule?
-- ask Find the measured IC50 of CC(C)C[C@@H]1NC(=O)c2ccc(-c3ccc(N4CCN(C(=O)c5ccccc5-c5ccccc5C(=O)N5CCN(c6ccc(-c7ccc8cc7CNC(=O)[C@@H]7CCCN7[C@H](C(=O)NC(C)(C)C)[C@H](C)NC(=O)[C@H]([C@@H](C)O)NC(=O)[C@H](CC(=O)O)NC(=O)[C@H](CC(C)C)NC8=O)cc6)CC5)CC4)cc3)c(c2)CNC(=O)[C@@H]2CCCN2[C@H](C(=O)NC(C)(C)C)[C@H](C)NC(=O)[C@H]([C@@H](C)O)NC(=O)[C@H](CC(=O)O)NC1=O [Compound 517] with VCAM-1 binding to α4β7-negative Th memory cells (Homo sapiens, UniProt P05556+P13612) as test system.
-- reply 0.607

----------
Reported IC50 values for the following compounds.
target-desc: recombinant integrin α4β7 (Homo sapiens, UniProt P13612+P26010, DEL724-798)
Construct: purchased R&D Systems 5397-A3-050
Sequence (P13612 34-970 limits assumed, stated change not applied): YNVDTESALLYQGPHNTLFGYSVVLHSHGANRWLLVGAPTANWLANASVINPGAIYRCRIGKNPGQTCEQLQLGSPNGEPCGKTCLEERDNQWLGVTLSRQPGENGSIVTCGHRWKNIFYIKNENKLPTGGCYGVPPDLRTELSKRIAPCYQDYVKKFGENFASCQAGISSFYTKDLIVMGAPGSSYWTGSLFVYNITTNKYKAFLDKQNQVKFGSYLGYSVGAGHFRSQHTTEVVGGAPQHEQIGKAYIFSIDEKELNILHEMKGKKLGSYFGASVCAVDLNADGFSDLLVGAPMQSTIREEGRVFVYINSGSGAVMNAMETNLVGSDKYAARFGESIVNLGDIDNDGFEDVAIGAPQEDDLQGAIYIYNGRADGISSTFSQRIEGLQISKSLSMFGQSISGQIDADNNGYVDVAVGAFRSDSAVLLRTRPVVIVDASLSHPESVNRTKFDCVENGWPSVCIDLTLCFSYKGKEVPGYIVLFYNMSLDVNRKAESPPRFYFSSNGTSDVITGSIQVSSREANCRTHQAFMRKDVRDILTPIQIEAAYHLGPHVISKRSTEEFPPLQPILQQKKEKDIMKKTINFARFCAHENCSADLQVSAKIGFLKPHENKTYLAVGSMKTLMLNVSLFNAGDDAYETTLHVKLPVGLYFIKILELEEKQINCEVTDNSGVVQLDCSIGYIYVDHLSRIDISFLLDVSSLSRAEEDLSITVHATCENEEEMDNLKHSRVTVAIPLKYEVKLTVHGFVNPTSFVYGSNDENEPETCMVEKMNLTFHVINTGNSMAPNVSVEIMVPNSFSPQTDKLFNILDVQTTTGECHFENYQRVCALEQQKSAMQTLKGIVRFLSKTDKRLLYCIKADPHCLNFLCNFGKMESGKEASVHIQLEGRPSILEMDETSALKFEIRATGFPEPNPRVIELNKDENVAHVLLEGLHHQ
Sequence (P26010 20-723 limits assumed, stated change not applied): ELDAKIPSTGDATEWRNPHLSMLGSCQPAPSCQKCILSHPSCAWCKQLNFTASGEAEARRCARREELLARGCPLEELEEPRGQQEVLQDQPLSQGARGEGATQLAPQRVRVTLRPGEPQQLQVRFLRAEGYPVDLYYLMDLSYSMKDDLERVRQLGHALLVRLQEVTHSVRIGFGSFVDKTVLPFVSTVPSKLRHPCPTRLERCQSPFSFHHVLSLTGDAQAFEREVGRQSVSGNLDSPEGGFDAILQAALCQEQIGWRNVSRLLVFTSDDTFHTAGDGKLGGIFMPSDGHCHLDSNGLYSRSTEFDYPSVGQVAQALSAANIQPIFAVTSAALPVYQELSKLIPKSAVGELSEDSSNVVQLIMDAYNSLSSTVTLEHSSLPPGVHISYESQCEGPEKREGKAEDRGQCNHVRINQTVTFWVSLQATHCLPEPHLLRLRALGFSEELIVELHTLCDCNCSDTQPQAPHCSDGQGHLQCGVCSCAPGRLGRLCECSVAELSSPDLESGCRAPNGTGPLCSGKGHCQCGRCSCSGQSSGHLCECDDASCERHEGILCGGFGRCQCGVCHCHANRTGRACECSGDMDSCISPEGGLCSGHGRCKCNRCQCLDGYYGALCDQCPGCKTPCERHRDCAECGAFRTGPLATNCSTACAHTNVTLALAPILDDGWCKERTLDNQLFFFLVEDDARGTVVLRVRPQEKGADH
assay: Integrin α4β7—MAdCAM-1 ELISA competition assay
Assay type: binding
condition-details: read-out: ELISA a4b7 Assay IC50
# unit: nM | format: bare number

Study these solved cases before continuing.
smiles | observed-value
CCC[C@@H]1NC(=O)[C@@H]2CCCN2[C@H](C(=O)NC(C)(C)C)[C@H](C)NC(=O)[C@H]([C@@H](C)O)NC(=O)[C@H](CC(=O)O)NC(=O)[C@H](CC(C)C)NC1=O | 184
CC(C)C[C@@H]1NC(=O)C[C@H](CCCCN)NC(=O)[C@H](Cc2ccccc2-c2cccnc2)NC(=O)[C@@H]2CCCN2[C@H](C(=O)NC(C)(C)C)[C@H](C)NC(=O)[C@H]([C@@H](C)O)NC(=O)[C@H](CC(=O)O)NC1=O | 30

Could you now consider this next compound?
-- ask Output measured IC50 for this item: CC(C)C[C@@H]1NC(=O)C[C@H](CCCCN)NC(=O)[C@](C)(Cc2ccccc2)NC(=O)[C@@H]2CCCN2[C@H](C(=O)NC(C)(C)C)[C@H](C)NC(=O)[C@H]([C@@H](C)O)NC(=O)[C@H](CC(=O)O)NC1=O
-- reply 102

----------
Reported pIC50 values for the following molecules.
target-desc: recombinant integrin α4β1 (Homo sapiens, UniProt P05556+P13612)
Construct: purchased R&D Systems 5397-A3-050
Sequence (P13612 34-970 limits assumed): as the sequence (P13612 34-970 limits assumed, stated change not applied) above
Sequence (P05556 21-728 limits assumed): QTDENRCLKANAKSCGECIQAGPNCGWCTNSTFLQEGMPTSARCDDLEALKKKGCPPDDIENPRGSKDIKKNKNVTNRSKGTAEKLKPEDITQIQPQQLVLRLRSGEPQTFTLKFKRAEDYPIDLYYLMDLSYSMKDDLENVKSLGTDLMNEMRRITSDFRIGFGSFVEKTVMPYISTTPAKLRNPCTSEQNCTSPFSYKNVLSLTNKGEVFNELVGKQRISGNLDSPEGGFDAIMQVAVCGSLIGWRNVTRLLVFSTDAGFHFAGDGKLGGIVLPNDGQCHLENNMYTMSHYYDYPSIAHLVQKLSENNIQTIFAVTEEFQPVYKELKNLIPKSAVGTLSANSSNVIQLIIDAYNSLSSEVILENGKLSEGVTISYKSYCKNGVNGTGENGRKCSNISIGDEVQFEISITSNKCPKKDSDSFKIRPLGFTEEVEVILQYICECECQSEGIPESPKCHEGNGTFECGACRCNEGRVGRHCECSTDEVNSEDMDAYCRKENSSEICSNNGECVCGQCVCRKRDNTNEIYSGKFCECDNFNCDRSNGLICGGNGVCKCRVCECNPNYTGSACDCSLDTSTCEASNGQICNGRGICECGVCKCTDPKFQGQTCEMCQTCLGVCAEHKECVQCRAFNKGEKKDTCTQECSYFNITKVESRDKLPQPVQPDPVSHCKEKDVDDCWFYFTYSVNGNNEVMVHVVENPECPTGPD
assay: Integrin α4β1—VCAM-1 competition ELISA
Format: binding
condition-details: read-out: ELISA α4β1 Assay IC50
Lab note — pIC50 values are minus log10 of concentrations in M.

Study these solved cases before continuing.
molecule | pIC50
COc1cc(C(=O)N2CCN(c3ccc(-c4ccc5cc4CNC(=O)[C@@H]4CCCN4[C@H](C(=O)NC(C)(C)C)[C@H](C)NC(=O)[C@H]([C@@H](C)O)NC(=O)[C@H](CC(=O)O)NC(=O)[C@H](CC(C)C)NC5=O)cc3)CC2)cc(-c2ccc(C(=O)N3CCN(c4ccc(-c5ccc6cc5CNC(=O)[C@@H]5CCCN5[C@H](C(=O)NC(C)(C)C)[C@H](C)NC(=O)[C@H]([C@@H](C)O)NC(=O)[C@H](CC(=O)O)NC(=O)[C@H](CC(C)C)NC6=O)cc4)CC3)cc2F)c1 [Compound 464] | 7.66
CC(C)C[C@@H]1NC(=O)c2ccc(-c3ccc(N4CCN(C(=O)c5cc(-c6ccccc6)c(C(=O)N6CCN(c7ccc(-c8ccc9cc8CNC(=O)[C@@H]8CCCN8[C@H](C(=O)NC(C)(C)C)[C@H](C)NC(=O)[C@H]([C@@H](C)O)NC(=O)[C@H](CC(=O)O)NC(=O)[C@H](CC(C)C)NC9=O)cc7)CC6)cc5-c5ccccc5)CC4)cc3)c(c2)CNC(=O)[C@@H]2CCCN2[C@H](C(=O)NC(C)(C)C)[C@H](C)NC(=O)[C@H]([C@@H](C)O)NC(=O)[C@H](CC(=O)O)NC1=O [Compound 469] | 8.00

-- ask Output measured pIC50 for this item: CC(C)C[C@@H]1NC(=O)c2ccc(-c3ccc(N4CCN(C(=O)COCC(=O)N5CCN(c6ccc(-c7ccc8cc7CNC(=O)[C@@H]7CCCN7[C@H](C(=O)NC(C)(C)C)[C@H](C)NC(=O)[C@H]([C@@H](C)O)NC(=O)[C@H](CC(=O)O)NC(=O)[C@H](CC(C)C)NC8=O)cc6)CC5)CC4)cc3)c(c2)CNC(=O)[C@@H]2CCCN2[C@H](C(=O)NC(C)(C)C)[C@H](C)NC(=O)[C@H]([C@@H](C)O)NC(=O)[C@H](CC(=O)O)NC1=O [Compound 390]
-- reply 8.70

-- ask Output measured pIC50 for this item: CC(C)C[C@@H]1NC(=O)c2ccc(-c3ccc(N4CCN(C(=O)C[C@@H](N)C(=O)N5CCN(c6ccc(-c7ccc8cc7CNC(=O)[C@@H]7CCCN7[C@H](C(=O)NC(C)(C)C)[C@H](C)NC(=O)[C@H]([C@@H](C)O)NC(=O)[C@H](CC(=O)O)NC(=O)[C@H](CC(C)C)NC8=O)cc6)CC5)CC4)cc3)c(c2)CNC(=O)[C@@H]2CCCN2[C@H](C(=O)NC(C)(C)C)[C@H](C)NC(=O)[C@H]([C@@H](C)O)NC(=O)[C@H](CC(=O)O)NC1=O [Compound 493]
-- reply 8.46

-- ask Output measured pIC50 for this item: CC(C)C[C@@H]1NC(=O)c2ccc(-c3ccc(N4CCN(Cc5cccc(CN6CCN(c7ccc(-c8ccc9cc8CNC(=O)[C@@H]8CCCN8[C@H](C(=O)NC(C)(C)C)[C@H](C)NC(=O)[C@H]([C@@H](C)O)NC(=O)[C@H](CC(=O)O)NC(=O)[C@H](CC(C)C)NC9=O)cc7)CC6)c5)CC4)cc3)c(c2)CNC(=O)[C@@H]2CCCN2[C@H](C(=O)NC(C)(C)C)[C@H](C)NC(=O)[C@H]([C@@H](C)O)NC(=O)[C@H](CC(=O)O)NC1=O [Compound 499]
-- reply 8.51

-- ask Output measured pIC50 for this item: CC(C)C[C@@H]1NC(=O)c2ccc(-c3ccc(N4CCN(C(=O)c5ccc(-c6cccc(C(=O)N7CCN(c8ccc(-c9ccc%10cc9CNC(=O)[C@@H]9CCCN9[C@H](C(=O)NC(C)(C)C)[C@H](C)NC(=O)[C@H]([C@@H](C)O)NC(=O)[C@H](CC(=O)O)NC(=O)[C@H](CC(C)C)NC%10=O)cc8)CC7)n6)nc5)CC4)cc3)c(c2)CNC(=O)[C@@H]2CCCN2[C@H](C(=O)NC(C)(C)C)[C@H](C)NC(=O)[C@H]([C@@H](C)O)NC(=O)[C@H](CC(=O)O)NC1=O [Compound 466]
-- reply 8.38

-- ask Output measured pIC50 for this item: CC(C)C[C@@H]1NC(=O)[C@H]2Cc3ccccc3CN2C(=O)[C@H](Cc2cccc(CNC(=O)CCCCCC(=O)NCc3cccc(C[C@@H]4NC(=O)[C@@H]5CCCN5[C@H](C(=O)NC(C)(C)C)[C@H](C)NC(=O)[C@H]([C@@H](C)O)NC(=O)[C@H](CC(=O)O)NC(=O)[C@H](CC(C)C)NC(=O)[C@H]5Cc6ccccc6CN5C4=O)c3)c2)NC(=O)[C@@H]2CCCN2[C@H](C(=O)NC(C)(C)C)[C@H](C)NC(=O)[C@H]([C@@H](C)O)NC(=O)[C@H](CC(=O)O)NC1=O [Compound 527]
-- reply 8.96

-- ask Output measured pIC50 for this item: CC(C)C[C@@H]1NC(=O)C[C@H](CCCCN)N(C)C(=O)[C@H](CCCCNC(=O)CCCCCCCCC(=O)NCCCC[C@@H]2NC(=O)[C@@H]3CCCN3[C@H](C(=O)NC(C)(C)C)[C@H](C)NC(=O)[C@H]([C@@H](C)O)NC(=O)[C@H](CC(=O)O)NC(=O)[C@H](CC(C)C)NC(=O)C[C@H](CCCCN)N(C)C2=O)NC(=O)[C@@H]2CCCN2[C@H](C(=O)NC(C)(C)C)[C@H](C)NC(=O)[C@H]([C@@H](C)O)NC(=O)[C@H](CC(=O)O)NC1=O [Compound 530]
-- reply 8.29

-- ask Output measured pIC50 for this item: CC(C)C[C@@H]1NC(=O)c2ccc(-c3ccc(N4CCN(CCC(=O)N5CCN(c6ccc(-c7ccc8cc7CNC(=O)[C@@H]7CCCN7[C@H](C(=O)NC(C)(C)C)[C@H](C)NC(=O)[C@H]([C@@H](C)O)NC(=O)[C@H](CC(=O)O)NC(=O)[C@H](CC(C)C)NC8=O)cc6)CC5)CC4)cc3)c(c2)CNC(=O)[C@@H]2CCCN2[C@H](C(=O)NC(C)(C)C)[C@H](C)NC(=O)[C@H]([C@@H](C)O)NC(=O)[C@H](CC(=O)O)NC1=O [Compound 482]
-- reply 8.82

-- ask Output measured pIC50 for this item: CC(C)C[C@@H]1NC(=O)c2ccc(-c3ccc(N4CCN(C(=O)C5(C(=O)N6CCN(c7ccc(-c8ccc9cc8CNC(=O)[C@@H]8CCCN8[C@H](C(=O)NC(C)(C)C)[C@H](C)NC(=O)[C@H]([C@@H](C)O)NC(=O)[C@H](CC(=O)O)NC(=O)[C@H](CC(C)C)NC9=O)cc7)CC6)Cc6ccccc6C5)CC4)cc3)c(c2)CNC(=O)[C@@H]2CCCN2[C@H](C(=O)NC(C)(C)C)[C@H](C)NC(=O)[C@H]([C@@H](C)O)NC(=O)[C@H](CC(=O)O)NC1=O [Compound 461]
-- reply 8.10
